experiment: Effect of a single 2 g dose of SYM-1219 on the plasma pharmacokinetics of EE2 and NET in healthy female subjects; format: in vivo, human; details: female, human, plasma, Group B1 Period 1: EE2/NET alone; read-out: NET Cmax, Mean
Endpoint name: Cmax (ng/mL)
API: value field is a number in ng/mL; no unit string.

# input Recorded Cmax of `C#C[C@]1(O)CC[C@H]2[C@@H]3CCC4=CC(=O)CC[C@@H]4[C@H]3CC[C@@]21C` , please.
# output 9.18

----------
assay: Effect of a single 2 g dose of SYM-1219 on the plasma pharmacokinetics of EE2 and NET in healthy female subjects; format: in vivo, human; conditions: female, human, plasma, Group B2 Period 1: EE2/NET alone; read-out: EE2 Cmax, Geometric Least Squares (LS) Means
Endpoint name: Cmax (ng/mL)
Report the figure in ng/mL without appending any unit label.

# input Which Cmax is listed for C#C[C@]1(O)CC[C@H]2[C@@H]3CCc4cc(O)ccc4[C@H]3CC[C@@]21C [EE2, ethinyl estradiol] ?
# output 0.083

----------
test: Effect of a single 2 g dose of SYM-1219 on the plasma pharmacokinetics of EE2 and NET in healthy female subjects; assay type: in vivo, human; conditions: female, human, plasma, Group B1 Period 2: EE2/NET followed by SYM-1219 2 grams on Day 1; read-out: NET t1/2, Median (converted)
Endpoint name: half-life (h)
State the answer as a number, implicitly in h.

# input Look at this compound and give its reported half-life. `C#C[C@]1(O)CC[C@H]2[C@@H]3CCC4=CC(=O)CC[C@@H]4[C@H]3CC[C@@]21C`
# output 9.12

----------
test: Effect of a single 2 g dose of SYM-1219 on the plasma pharmacokinetics of EE2 and NET in healthy female subjects; type: in vivo, human; conditions: female, human, plasma, Group B2 Period 2: SYM-1219 2 grams on Day 1, EE2/NET on Day 2; read-out: EE2 AUC0-t, Mean
Endpoint name: AUC(0-t)

# input If you can, please state the reported AUC(0-t) value of C#C[C@]1(O)CC[C@H]2[C@@H]3CCc4cc(O)ccc4[C@H]3CC[C@@]21C [EE2, ethinyl estradiol] .
# output 0.669 ng·h/mL

----------
test: Effect of a single 2 g dose of SYM-1219 on the plasma pharmacokinetics of EE2 and NET in healthy female subjects; assay type: in vivo, human; conditions: female, human, plasma, Group B2 Period 2: SYM-1219 2 grams on Day 1, EE2/NET on Day 2; read-out: EE2 AUC0-∞, Geometric Least Squares (LS) Means
Endpoint name: AUC(0-inf)

# input # AUC(0-inf) lookup, item `C#C[C@]1(O)CC[C@H]2[C@@H]3CCc4cc(O)ccc4[C@H]3CC[C@@]21C`
# output 0.882 ng·h/mL

----------
assay: Effect of a single 2 g dose of SYM-1219 on the plasma pharmacokinetics of EE2 and NET in healthy female subjects; format: in vivo, human; settings: female, human, plasma, Group B1 Period 2: EE2/NET followed by SYM-1219 2 grams on Day 1; read-out: NET AUC0-∞, Geometric LSMeans
Endpoint name: AUC(0-inf)
Number first, unit second.

# input Report AUC(0-inf) for `C#C[C@]1(O)CC[C@H]2[C@@H]3CCC4=CC(=O)CC[C@@H]4[C@H]3CC[C@@]21C` please.
# output 56.4 ng·h/mL

# credit: patent US11684607B2
